The measured values listed here are drawn from PubChem BioAssay (EPA / NIEHS).

Read-out: Cytochrome P450 4A22 (Homo sapiens)
Experiment: LTEA_HepaRG_CYP4A22: Life Technologies and Expression Analysis (LTEA) Assay for Cytochrome P450 4A22 (CYP4A22) using HepaRG (AID 2283495)
Details: mRNA level, 48 h; actives raise or lower the signal
Active and inactive are the calls of the source. The calls were made as follows: active = hit-call score of the fitted dose curve at least 0.9, where 1 is the maximum; inactive = score below 0.9.
Just give me one of these, please: 1.0 = active, 0.0 = inactive

As a guide, the following entries are already answered.
- Smiles structure: "CC1(C)C(=O)NC(=O)N1CO"
  Group: 0.0
- Smiles structure: "O=C1c2c(O)cccc2Cc2cccc(O)c21"
  Group: 0.0
- Smiles structure: "CN(C)CCCN1c2ccccc2Sc2ccc(Cl)cc21"
  Group: 0.0
- Smiles structure: "NCCOCCOCCN"
  Group: 0.0
- Smiles structure: "CC(C)OC(=O)C(C)(C)Oc1ccc(C(=O)c2ccc(Cl)cc2)cc1"
  Group: 1.0

Lab log entry: CC1=C(C)S(=O)(=O)CCS1(=O)=O — outcome as called in the assay? 1.0

Hey, what did the test say about O=C(Oc1ccccc1)c1cccc(C(=O)Oc2ccccc2)c1 ? 0.0

* * *

Read-out: Forkhead box O3 (FOXO3), FOXO3 (gene 2309)
Assay: LTEA_HepaRG_FOXO3: Life Technologies and Expression Analysis (LTEA) Assay for Forkhead box O3 (FOXO3) using HepaRG (AID 2283459)
Settings: mRNA level, 48 h; actives raise or lower the signal
Calls of active or inactive are those of the source. Rule for the calls: active = hit-call score of the fitted dose curve at least 0.9, where 1 is the maximum; inactive = score below 0.9.
Tick one outcome: true (1) (active), false (0) (inactive)

Consider the following illustrative entries.
- Compound: "O=C(N[C@@H](c1ccccc1)[C@@H]1CCCCN1)c1cccc(C(F)(F)F)c1Cl"
  Group: "true (1)"
- Compound: "Cc1cc(Cc2ccc(N)c(C)c2)ccc1N"
  Group: "false (0)"
- Compound: "CS(=O)(=O)c1ccc([C@@H](C[C@H]2CCC(=O)C2)C(=O)Nc2cnccn2)cc1Cl"
  Group: "true (1)"
- Compound: "CCCCC(CC)COC(=O)CCCCCCCC(=O)OCC(CC)CCCC (centres undefined)"
  Group: "false (0)"

For this compound, state the assay outcome: CC(C)c1cccc(C(C)C)c1 false (0)

Recorded call for CCC(C)N(C)C(=O)c1cc2ccccc2c(-c2ccccc2Cl)n1 (centres undefined) ? false (0)

Which outcome was assigned to C/C=C/c1ccc(OC)cc1 in this test? false (0)

* * *

Assay: ATG_TCF_b_cat_CIS: Attagene CIS-FACTORIAL HepG2 Assay for human T-Cell-Factor with beta-catenin (TCF/b-cat) (AID 2282965)
Settings: HepG2 TCF/beta-catenin cis-reporter transcription, actives raise or lower the signal
Active and inactive are the calls of the source. How the source made its calls: active means hit-call score of the fitted dose curve at least 0.9, where 1 is the maximum; inactive means score below 0.9.
Test readout: outcome

Example cases with answers are listed next.
- Molecule: "Cc1cc(Cc2ccc(N)c(C)c2)ccc1N"
  Reported result: "inactive"
- Molecule: "CCCC[C@H]1CN(CC2CCOCC2)C(=O)OC12CCN(C1(C)CCN(C(=O)c3c(C)ncnc3C)CC1)CC2"
  Reported result: "inactive"
- Molecule: "COc1ccc(C(=O)Nc2nc3ccccc3c(NCc3ccccc3)c2C#N)cc1"
  Reported result: "inactive"
- Molecule: "O=[Si]=O"
  Reported result: "inactive"
- Molecule: "CO[C@@H]1COCC[C@@H]1N[C@@H]1CC[C@@](C(=O)N2CCc3ncc(C(F)(F)F)cc3C2)(C(C)C)C1"
  Reported result: "inactive"

Could you share which outcome value was measured for O=C1NC(=O)C(c2ccccc2)(c2ccccc2)N1 ? inactive

Which outcome value belongs to CC1(C)C(=O)NC(=O)N1CO ? inactive

Which outcome is reported for this molecule? NC=O inactive
